B1: F1*; the commonest letter at each place (parent)
chain: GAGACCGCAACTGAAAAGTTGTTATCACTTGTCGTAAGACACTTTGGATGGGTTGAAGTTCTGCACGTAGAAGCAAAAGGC

# Variants of: B1
# Assay Info: fraction ligated after 30 min (ligated reads / total reads); higher = more ligase activity
# Experimental Parameters: with F1*sub RNA substrate (template-directed ligation), 42 °C
# cutoff 0.8 applies to fraction ligated; >= gives met, < gives not met

Mutant Designation	Group
A39T A41G	not met
G50C A56C	not met
C26T T30A	met
T32A T35C	met
G34C C42G	met
C33T G46A	met
T30G A41G	met
G34C A41G	not met
G46T A48G	not met
G34T A36G	met
T35G T45A	not met
G31T C40G	met
T30G T44A	met
G31T A56G	not met
G31T A48G	not met
A39T T45G	not met
G38C G55A	met
T49C G50T	not met
T32G G55C	not met
C26T C42T	met
T25C T45C	not met
T32A T49A	not met
T43C A56G	not met
A37C C42T	met
C33A A41T	met
G31A A37T	met
A39T G50A	not met
T32G G47T	not met
T23A G50C	not met
